assay_info: OD615 S. cerevisiae growth inhibition, permissive medium, pilot counter-assay, permissive growth control for S. cerevisiae lifespan shortening project (AID 705)
reported_conditions: OD615, 24 h, at 10 µM, active compounds read high
Listed here: items and their measured growth inhibition.
A number alone suffices; assume %.

COC(=O)C1=C(C)NC(=O)CC1c1cc2c(cc1Br)OCO2 (configuration not stated) = 4.83
COc1ccc(C2N3CC4(C)CN2CC(C)(C3)C4O)cc1 (configuration not stated) = -17.7

Task item: Entry Cc1occc1-c1nc(-c2ccccn2)no1 has what growth inhibition?
Reply: -14.3

Task item: Here is the next molecule: CCCC1(C(=O)O)NC(c2cccc(OC)c2O)C2C(=O)N(c3ccccc3)C(=O)C21 (configuration not stated)
Reply: -0.085

Task item: Param item: Cc1cccc(-n2c(O)c(C=Nc3ccc4c(c3)OCO4)c3ccccc3c2=O)n1
Reply: 1.54

Task item: How about this molecule: CC(C)N1CCc2c(sc(NC(=O)c3ccc(S(=O)(=O)N4CCOCC4)cc3)c2C(N)=O)C1
Reply: -2.23

Task item: What about O=C(c1cc(-c2cccc(O)c2)on1)N1CCCCC1 ?
Reply: 0.145

These measurements were taken from PubChem BioAssay.
